system tested: CDK2/Cyclin E (Homo sapiens (Human))
method summary: CDK2/Cyclin E kinase assay (Nanosyn, Caliper microfluidic)
Assay type: biochemical
test conditions: 12-point dose-response, singlicate, at Km for ATP; ATP 100 μM; 3 hr
readout kind: IC50 (nM)

// known answers, use as guide
- compound: "CC1C(=O)N(C)c2cc3cnc(Nc4ccc(S(N)(=O)=O)cc4)nc3n2C12CCCCC2 (stereo not shown)"
  readout kind: "IC50"
  reported value: 4
- compound: "NS(=O)(=O)c1ccc(Nc2ncc3cc4n(c3n2)C2(C=NN4)CCCCC2)cc1"
  readout kind: "IC50"
  reported value: 1
- compound: "CC1C(=O)Nc2cc3cnc(Nc4ccc(S(N)(=O)=O)cc4)nc3n2C12CCCCC2 (stereo not shown)"
  readout kind: "IC50"
  reported value: 1
- compound: "CC1=NN(C)c2cc3cnc(Nc4ccc(S(N)(=O)=O)cc4)nc3n2C12CCCCC2"
  readout kind: "IC50"
  reported value: 2
- compound: "NS(=O)(=O)c1ccc(Nc2ncc3cc4n(c3n2)C2(CCCCC2)C(=O)NC4O)cc1 (stereo not shown)"
  readout kind: "IC50"
  reported value: 0.34
- compound: "Nc1ccc(S(=O)(=O)Nc2ncc3cc4n(c3n2)C2(CCCCC2)C(=O)NN4)cc1"
  readout kind: "IC50"
  reported value: 207

a. CN1CCN(S(=O)(=O)c2ccc(Nc3ncc4cc5n(c4n3)C3(CCCCC3)C(=O)NC5O)cc2)CC1 (stereo not shown)
b. Nc1ccc(S(=O)(=O)Nc2ncc3cc4n(c3n2)C2(CCCCC2)CNC4=O)cc1
query: Which numeric IC50 is bigger, that of a or that of b ? // return label of chosen record
result: b

A. CNC(=O)Nc1ccc(Nc2ncc3cc4n(c3n2)C2(CCCCC2)C(=O)NN4)cc1
B. CS(=N)(=O)c1ccc(Nc2ncc3cc4n(c3n2)C2(CCCCC2)C(=O)NN4)cc1 (stereo not shown)
C. CN1N=CC2(CCCCC2)n2c1cc1cnc(Nc3ccc(S(N)(=O)=O)cc3)nc12
query: Could you please order the items by IC50, going from the lowest number to the highest? Sort and list the labels as requested.
result: C, B, A
